As shown below, each of these binders has a reported IC50 value.
Biological target: T1, human MCAM, full length, expressed on transfected cells (human, UniProt P43121 24-646)
T1 construct: also called CD146; MUC18
T1 chain: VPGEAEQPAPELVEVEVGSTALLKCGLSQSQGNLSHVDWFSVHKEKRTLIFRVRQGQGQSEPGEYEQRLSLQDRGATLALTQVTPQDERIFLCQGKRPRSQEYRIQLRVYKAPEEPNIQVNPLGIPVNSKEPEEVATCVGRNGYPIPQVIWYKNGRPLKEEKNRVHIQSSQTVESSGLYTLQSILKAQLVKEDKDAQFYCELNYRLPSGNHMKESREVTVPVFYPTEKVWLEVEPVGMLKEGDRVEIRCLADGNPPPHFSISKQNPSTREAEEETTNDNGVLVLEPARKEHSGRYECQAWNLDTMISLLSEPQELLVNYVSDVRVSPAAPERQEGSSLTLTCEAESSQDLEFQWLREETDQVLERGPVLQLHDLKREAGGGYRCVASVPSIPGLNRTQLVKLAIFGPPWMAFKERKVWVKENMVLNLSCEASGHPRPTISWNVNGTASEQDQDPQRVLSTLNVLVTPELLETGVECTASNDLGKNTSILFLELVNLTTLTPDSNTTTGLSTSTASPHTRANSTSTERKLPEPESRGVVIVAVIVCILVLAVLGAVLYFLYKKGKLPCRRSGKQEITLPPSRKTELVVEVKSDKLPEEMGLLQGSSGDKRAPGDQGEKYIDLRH
Experiment: flow cytometry, blocking of recombinant human laminin 411 (20 ug/ml) binding to CHO cells expressing human MCAM
Answer format: numeric, µg/mL implied, no suffix.

Below, 3 binders whose answers are already recorded.
{"binder": "mouse anti-human MCAM monoclonal antibody clone 1174.1.3 (antibody, V domains shown, Mouse hybridoma monoclonal antibody) VH: QIQLVQSGPELKKPGETVKISCKASGYTFTNYGMNWVKQAPGKGLKWMGWINTYTGEPTYADDFKGRFALSLETSASTAYLQINNLKNEDMATYFCARYRYNKYERAMDYWGQGTSVTVSS VL: DIVLTQSPASLAVSLGQRATISCRASKSVSTSGYSYMYWYQQKPGQPPKLLIYLASNLESGVPARFSGSGSGTDFTLNIHPVEEEDAATYYCQHSRELPFTFGSGTKLEIK", "IC50 [µg/mL]": 0.469}
{"binder": "mouse anti-human MCAM monoclonal antibody clone 1415.1.1 (antibody, V domains shown, Mouse hybridoma monoclonal antibody) VH: QVQLQQPGAELVQPGAPVKLSCKASGYIFTSYWMNWVKQRPGRGLEWIGRIDPSDSKIHYNQKFKDKATLTVDRSSSTAYIQLGSLTSEDSAVYYCAKEGGLRRGDYAMDYWGQGTSVTVSS VL: DIVMTQSPATLSVTPGDRVSLSCRASQSISDYLHWYQQKSHESPRLLIKYASQSISGIPSRFSGSGSGSDFTLSINSVEPEDVGVYYCQNGHNFPRTFGGGTKLEIK", "IC50 [µg/mL]": 0.307}
{"binder": "rat anti-human MCAM monoclonal antibody clone 2120.4.19 (antibody, V domains shown, Rat hybridoma monoclonal antibody) VH: QVQLKESGPGLVQPSQTLSLTCTVSGFSLTSNGVSWVRQPPGKGLEWIAAISSGGTTYYNSAFKSRLSISRNTSKSQVLLKMNSLQTEDTAMYFCARRYGYGWYFDFWGPGTMVTVSS VL: DIRMTQSPSLLSASVGDRVTLNCKASQNIYNSLAWYQQKLGEGPKVLIFNANSLQTGIPSRFSGSGSGTDFTLTISSLQPEDFATYFCQQFYSGYTFGAGTKLELK", "IC50 [µg/mL]": 0.888}

Then there is this binder:
Req: Field request: IC50 | item: mouse anti-human MCAM monoclonal antibody clone 1414.1.2 (antibody, V domains shown, Mouse hybridoma monoclonal antibody) VH: EIQLQQTGPELVKPGASVKISCKASGYSFTDYIMLWVKQSHGKSLEWIGNINPYSGSSGYNLKFKGKATLTVDKSSSTAYMQLNSLTSEDSAVYYCARGKDFAMDYWGQGTSVTVSS VL: DIVMSQSPSSLAVSAGEKVTMSCKSSQSLLNSSTRKNFLAWYQQKPGQSPKLLIYWASTRESGVPDRFTGSGSGTDFTLTISSVQAEDLAVYYCKQSYNRYTFGGGTKLEIK
Resp: 0.431
